The following molecules are listed with their measured melting point values.

>  <molecule>
CC(C)(C)OC(=O)N[C@@H](C[S+]([O-])Cc1ccc(-c2ccc(-c3c(Cc4ccccc4)oc4ccccc34)cc2)cc1)C(=O)O (stereo partly shown)

>  <melting point>
195 to 196 °C

$$$$
>  <molecule>
CC(C)(C)OC(=O)N[C@@H](CSCc1ccc(-c2ccc(-c3ccc4c(c3)OCO4)cc2)cc1)C(=O)O (stereo in doubt)

>  <melting point>
178 to 180 °C

$$$$
>  <molecule>
CC(C)(C)OC(=O)N[C@@H](C[S+]([O-])Cc1ccc(-c2ccc(-n3ccc4ccccc43)cc2)cc1)C(=O)O (stereo partly shown)

>  <melting point>
169 to 170 °C

$$$$
>  <molecule>
O=C(N[C@@H](CSCc1ccc(-c2ccc(-c3c(Cc4ccccc4)oc4ccccc34)cc2)cc1)C(=O)O)c1ccccc1

>  <melting point>
138 to 139 °C

$$$$
>  <molecule>
CC(C)(C)OC(=O)N[C@@H](CSCc1ccc(-c2ccc(-c3c(Cc4ccccc4)oc4ccccc34)cc2)cc1)C(=O)O

>  <melting point>
89 to 90 °C

$$$$
>  <molecule>
O=C(Cc1cccc([N+](=O)[O-])c1)N[C@@H](C[S+]([O-])Cc1ccc(-c2ccc(-n3ccc4ccccc43)cc2)cc1)C(=O)O (stereo partly shown)

>  <melting point>
197 to 198 °C

$$$$
>  <molecule>
O=C(Cc1ccc(F)cc1)N[C@@H](CSCc1ccc(-c2ccc(-c3c(Cc4ccccc4)oc4ccccc34)cc2)cc1)C(=O)O

>  <melting point>
82 to 84 °C

$$$$
>  <molecule>
O=C(Cc1ccccc1)N[C@@H](CSCc1ccc(-c2ccc(-c3c(Cc4ccccc4)oc4ccccc34)cc2)cc1)C(=O)O

>  <melting point>
77 to 78 °C

$$$$
>  <molecule>
CC(=O)N[C@@H](CSCc1ccc(-c2ccc(-c3c(Cc4ccccc4)oc4ccccc34)cc2)cc1)C(=O)O

>  <melting point>
131 to 132 °C

$$$$
>  <molecule>
O=C(O)[C@H](CSCc1ccc(-c2ccc(-n3ccc4ccccc43)cc2)cc1)NC(=O)N1CCOCC1

>  <melting point>
195 °C (dec.)

$$$$

---

The following molecules are listed with their measured melting point values.

>  <molecule>
O=C(Cc1ccc(O)cc1)N[C@@H](CSCc1ccc(-c2ccc(-c3c(Cc4ccccc4)oc4ccccc34)cc2)cc1)C(=O)O

>  <melting point>
148 to 149 °C

$$$$
>  <molecule>
O=C(Cc1ccccc1[N+](=O)[O-])N[C@@H](CSCc1ccc(-c2ccc(-c3c(Cc4ccccc4)oc4ccccc34)cc2)cc1)C(=O)O

>  <melting point>
189 to 191 °C

$$$$
>  <molecule>
O=C(N[C@@H](CSCc1ccc(-c2ccc(-c3c(Cc4ccccc4)oc4ccccc34)cc2)cc1)C(=O)O)c1ccc2nc[nH]c2c1

>  <melting point>
149 to 150 °C

$$$$
>  <molecule>
Nc1ccc(CC(=O)N[C@@H](CSCc2ccc(-c3ccc(-c4c(Cc5ccccc5)oc5ccccc45)cc3)cc2)C(=O)O)cc1

>  <melting point>
170 to 172 °C

$$$$
>  <molecule>
CC(C)COC(=O)N[C@@H](CSCc1ccc(-c2ccc(-n3ccc4ccccc43)cc2)cc1)C(=O)O

>  <melting point>
85 to 86 °C

$$$$
>  <molecule>
COC(=O)N[C@@H](CSCc1ccc(-c2ccc(-n3ccc4ccccc43)cc2)cc1)C(=O)O

>  <melting point>
81 to 82 °C

$$$$
>  <molecule>
CC(C)(C)OC(=O)NC(CSCc1ccc(-c2nc(-c3ccccc3)cc(-c3ccccc3)n2)cc1)C(=O)O (centres unmarked)

>  <melting point>
250 °C (dec.)

$$$$
>  <molecule>
O=C(Cc1cccc([N+](=O)[O-])c1)N[C@@H](CSCc1ccc(-c2ccc(-c3c(Cc4ccccc4)oc4ccccc34)cc2)cc1)C(=O)O

>  <melting point>
108 to 109 °C

$$$$
>  <molecule>
CC(=O)NC(CSCc1ccc(-c2nc(-c3ccccc3)cc(-c3ccccc3)n2)cc1)C(=O)O (centres unmarked)

>  <melting point>
223 to 226 °C

$$$$
>  <molecule>
O=C(Cc1ccc([N+](=O)[O-])cc1)N[C@@H](CSCc1ccc(-c2ccc(-c3c(Cc4ccccc4)oc4ccccc34)cc2)cc1)C(=O)O

>  <melting point>
102 to 103 °C

$$$$
>  <molecule>
CC(C)(C)OC(=O)N[C@@H](CSCc1ccc(-c2ccc(-c3cccc4c3sc3ccccc34)cc2)cc1)C(=O)O

>  <melting point>
108 to 110 °C

$$$$
>  <molecule>
CC(C)(C)OC(=O)N[C@@H](CS(=O)(=O)Cc1ccc(-c2ccc(-c3c(Cc4ccccc4)oc4ccccc34)cc2)cc1)C(=O)O

>  <melting point>
202 to 203 °C

$$$$
>  <molecule>
COc1ccc(CC(=O)N[C@@H](CSCc2ccc(-c3ccc(-c4c(Cc5ccccc5)oc5ccccc45)cc3)cc2)C(=O)O)cc1

>  <melting point>
59 to 60 °C

$$$$
>  <molecule>
O=C(Cc1cccc([N+](=O)[O-])c1)N[C@@H](CSCc1ccc(-c2ccc(-n3ccc4ccccc43)cc2)cc1)C(=O)O

>  <melting point>
94 °C

$$$$
